Biological target: T1, TX1BP3, O14907
T1 sequence (O14907 10-122, limits assumed, looked up): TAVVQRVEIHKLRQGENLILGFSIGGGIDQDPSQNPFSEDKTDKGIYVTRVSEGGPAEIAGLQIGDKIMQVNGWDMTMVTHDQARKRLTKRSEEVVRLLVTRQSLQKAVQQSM
Assay: holdup assay
Parameters: key: below the threshold = too weak to quantify, mostly under pKd 3.1 to 4
Conditions: plain residues with an end cap or a label only (N-terminal biotin on a linker: ado-ado)
endpoint-label: pKd

Examples from the recorded data:
PDSYHRRDFW [U2AF2, P26368] | below the threshold
GQNMTVSVVI [PRLHR, P49683] | below the threshold
LLQEEWETVM [PTH1R, Q03431] | below the threshold
KLQNPNQSVV [TYRP1, P17643] | below the threshold
THHRKIHTRV [ZNF599, Q96NL3] | 3.74
HLSTRQGTCV [ATRNL1, Q5VV63] | below the threshold
GTMFLRETSL [GUCY1A2, P33402] | 5.31
EKPIDSETKM [SLC1A3, P43003] | below the threshold

q: # query: pKd of entry KIEDVEITLV [FCHSD2, O94868]
a: 3.98
